The following compounds are listed with their measured Ki values.
# target_system: Amyloid-beta precursor protein (Homo sapiens)
# Sequence (P05067 whole entry): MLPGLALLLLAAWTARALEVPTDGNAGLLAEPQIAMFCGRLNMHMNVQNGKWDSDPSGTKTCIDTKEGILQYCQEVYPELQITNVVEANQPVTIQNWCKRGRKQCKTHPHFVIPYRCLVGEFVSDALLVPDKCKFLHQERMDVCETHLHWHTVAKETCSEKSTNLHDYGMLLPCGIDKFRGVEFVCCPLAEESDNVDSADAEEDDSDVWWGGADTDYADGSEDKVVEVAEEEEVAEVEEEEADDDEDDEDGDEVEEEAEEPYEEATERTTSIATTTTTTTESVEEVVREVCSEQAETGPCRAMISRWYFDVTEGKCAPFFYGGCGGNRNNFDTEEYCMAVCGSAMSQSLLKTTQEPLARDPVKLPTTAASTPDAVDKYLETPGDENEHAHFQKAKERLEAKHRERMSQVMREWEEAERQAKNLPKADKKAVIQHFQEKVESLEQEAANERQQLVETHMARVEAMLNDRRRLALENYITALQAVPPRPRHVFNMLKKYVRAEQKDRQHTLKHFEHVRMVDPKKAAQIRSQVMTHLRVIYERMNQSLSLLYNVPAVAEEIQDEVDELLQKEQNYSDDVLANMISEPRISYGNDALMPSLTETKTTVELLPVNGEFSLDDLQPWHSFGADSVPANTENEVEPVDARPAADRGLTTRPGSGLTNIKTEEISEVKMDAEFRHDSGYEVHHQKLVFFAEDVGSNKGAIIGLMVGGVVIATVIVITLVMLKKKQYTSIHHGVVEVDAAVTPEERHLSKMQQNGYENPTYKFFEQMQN
# protocol_summary: Inhibition constant against [125I]-7 (TZDM) binding to Amyloid beta 1-40 aggregates

Below: 4 compounds and their reported Ki.
> print(dat)
                     compound.smiles  value.observed
1  CN(C)c1ccc(-c2nc3ccc(I)cn3c2I)cc1       > 2000 nM
2      CNc1ccc(-c2cn3cc(C)ccc3n2)cc1       > 2000 nM
3      CN(C)c1ccc(-c2cn3ccccc3n2)cc1       > 2000 nM
4     CN(C)c1ccc(-c2nc3ccccn3c2I)cc1       > 2000 nM

Below: the item to evaluate.
## Task Identify the measured Ki of CNc1ccc(-c2cn3ccccc3n2)cc1 for Amyloid-beta precursor protein (Homo sapiens).
## Result > 1000 nM
